# System tested: HLA-B*44:02
# Protocol notes: IEDB peptide-MHC binding, purified MHC/direct/fluorescence; filed as Kd, often an IC50 or EC50 that approximates it; bounds were set here for any values at or beyond the usual limits of such assays
# Condition summary: source organism: West Nile virus
Assay metric: Kd

input: Field request: Kd | item: VHREWFMDL
output: ≥ 20 µM

----------
# System tested: HLA-A*03:01
# Protocol notes: IEDB peptide-MHC binding, purified MHC/competitive/radioactivity; filed as Kd, often an IC50 or EC50 that approximates it; bounds were set here for any values at or beyond the usual limits of such assays
# Condition summary: source organism: SARS coronavirus Tor2
Classes by Kd: low = under 200 nM, middle = from 200 nM up to 600 nM, high = 600 nM and over

NQATTKTTFK :: middle

input: Which band does AQPLPQRQKK fall in?
output: high

input: Cool, now MQKESDDYIK
output: high

input: Repeat for the following sequence: LFQLCTFTK
output: middle

input: Record: SLIDLQELGK
output: low

input: Queued: LLMPILTLTR
output: middle

----------
# System tested: HLA-A*68:23
# Protocol notes: IEDB peptide-MHC binding, purified MHC/competitive/fluorescence; filed as Kd, often an IC50 or EC50 that approximates it; bounds were set here for any values at or beyond the usual limits of such assays
# Condition summary: source organism: Yersinia pseudotuberculosis IP 31758
Assay metric: Kd (nM)
Answer format: numeric, nM implied, no suffix.

input: Look up Kd: RQIRMTSTI
output: 427

----------
# System tested: HLA-B*35:01
# Protocol notes: IEDB peptide-MHC binding, purified MHC/competitive/fluorescence; filed as Kd, often an IC50 or EC50 that approximates it; bounds were set here for any values at or beyond the usual limits of such assays
# Condition summary: source organism: Orthomarburgvirus marburgense
Assay metric: pKd
To interpret pKd, take it as minus log10 of a concentration measured in moles per litre.

input: Which pKd reading was recorded for the sequence GFPSLESSF ?
output: 6.06

----------
# System tested: HLA-A*69:01
# Protocol notes: IEDB peptide-MHC binding, purified MHC/direct/fluorescence; filed as Kd, often an IC50 or EC50 that approximates it; bounds were set here for any values at or beyond the usual limits of such assays
# Condition summary: source organism: Orthohantavirus dobravaense
pKd: −log10 of the molar value.
Assay metric: pKd

input: Requested read-out pKd, target or system HLA-A*69:01, entry SLYSGFPSL
output: ≥ 9.00

----------
# System tested: HLA-A*68:01
# Protocol notes: IEDB peptide-MHC binding, purified MHC/competitive/radioactivity; filed as Kd, often an IC50 or EC50 that approximates it; bounds were set here for any values at or beyond the usual limits of such assays
# Condition summary: source organism: Lassa virus Josiah
Assay metric: Kd

input: Item under review: DAHKKNLYDH . Reported Kd?
output: ≥ 70.1 µM

----------
# System tested: HLA-B*15:01
# Protocol notes: IEDB peptide-MHC binding, purified MHC/competitive/fluorescence; filed as Kd, often an IC50 or EC50 that approximates it; bounds were set here for any values at or beyond the usual limits of such assays
# Condition summary: source organism: Escherichia coli
Assay metric: pKd
Keep in mind that pKd stands for -log10 of concentration in molar terms.

input: Could you tell me which pKd is on file for HLAGYSGVL ?
output: 6.45
